- System: AChE
- protocol_description: Selectivity index, ratio of CC50 for human SH-SY5Y cells to IC50 for inhibition of mouse brain AChE
measured_quantity: selectivity ratio

QUERY: // query selectivity ratio value for entry CCN(C)CCCCOc1ccc2c(=O)c(-c3ccc(OCCN4CCCCC4)cc3)coc2c1
RESULT: > 1230

###

- protocol_description: Half life in ICR mouse at 30 mg/kg, po measured upto 48 hrs by LCMS/MS method
- Type: ADME, organism-based
- experimental_parameters: in vivo
measured_quantity: half-life (h)
Numbers only, in h.

QUERY: // query half-life value for entry CCN(C)CCCCOc1ccc2c(=O)c(-c3ccc(OCCN4CCCCC4)cc3)coc2c1
RESULT: 13.9

###

- measured_on: Acetylcholinesterase (Mus musculus)
- Sequence (P21836 whole entry): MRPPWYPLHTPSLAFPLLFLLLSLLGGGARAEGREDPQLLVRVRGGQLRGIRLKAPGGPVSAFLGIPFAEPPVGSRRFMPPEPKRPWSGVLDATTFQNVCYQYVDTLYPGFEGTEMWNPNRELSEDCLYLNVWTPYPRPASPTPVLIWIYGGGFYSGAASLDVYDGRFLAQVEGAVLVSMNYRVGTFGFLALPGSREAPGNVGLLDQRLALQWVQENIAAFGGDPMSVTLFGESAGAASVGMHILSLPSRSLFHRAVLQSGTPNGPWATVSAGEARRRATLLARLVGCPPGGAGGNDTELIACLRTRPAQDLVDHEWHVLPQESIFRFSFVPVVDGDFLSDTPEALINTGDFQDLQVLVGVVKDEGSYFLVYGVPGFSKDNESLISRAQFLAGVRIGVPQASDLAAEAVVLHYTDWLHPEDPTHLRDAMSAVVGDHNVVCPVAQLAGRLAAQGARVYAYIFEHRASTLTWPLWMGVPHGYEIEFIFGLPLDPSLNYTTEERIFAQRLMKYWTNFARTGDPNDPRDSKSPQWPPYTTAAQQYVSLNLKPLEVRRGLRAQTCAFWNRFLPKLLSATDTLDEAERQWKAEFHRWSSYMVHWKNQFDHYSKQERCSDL
- experimental_parameters: at 10 µM
- Description: Inhibition of mouse brain AChE at 10 uM using acetylthiocholine iodide as substrate measured after 30 mins by Ellman's method
Label MET when inhibition >= 40%; otherwise NOT MET.

QUERY: Kindly determine if inhibition recorded for COc1ccc(-c2coc3cc(OCCOCCN4CCCCC4)ccc3c2=O)cc1 is above or exactly 40%.
RESULT: NOT MET

###

- protocol_description: Log BB, ratio of Cmax in brain to blood in ICR mouse at 30 mg/kg, po measured upto 48 hrs by LCMS/MS method
- Type: ADME, organism-based
- experimental_parameters: read-out: logBB (converted)
measured_quantity: Kp at 48 h
One number for each entry.

QUERY: // query Kp at 48 h value for entry CCN(C)CCCCOc1ccc2c(=O)c(-c3ccc(OCCN4CCCCC4)cc3)coc2c1
RESULT: 17.4

###

- measured_on: Histamine H3 receptor (Homo sapiens, UniProt Q9Y5N1)
- Sequence (Q9Y5N1 whole entry): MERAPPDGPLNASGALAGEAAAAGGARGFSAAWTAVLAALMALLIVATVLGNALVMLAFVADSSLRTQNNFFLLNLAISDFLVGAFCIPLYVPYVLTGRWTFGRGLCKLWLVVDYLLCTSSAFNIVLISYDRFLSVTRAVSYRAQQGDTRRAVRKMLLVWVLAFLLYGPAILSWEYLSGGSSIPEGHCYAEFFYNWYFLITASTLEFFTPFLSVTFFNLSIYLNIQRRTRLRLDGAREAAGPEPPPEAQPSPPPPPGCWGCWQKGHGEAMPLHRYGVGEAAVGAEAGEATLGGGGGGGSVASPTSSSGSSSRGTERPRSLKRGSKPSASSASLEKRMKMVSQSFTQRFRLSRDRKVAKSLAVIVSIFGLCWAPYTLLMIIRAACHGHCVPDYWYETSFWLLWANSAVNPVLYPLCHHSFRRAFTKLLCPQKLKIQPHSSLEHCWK
- protocol_description: Inhibition of human H3R expressed in methylhistamine-induced human H3-bla U2OS cells at 10 uM incubated for 30 mins by beta-lactamase complementation technology relative to control
- Assay type: cell-based
measured_quantity: inhibition (%)
Numbers only, in %.

O=c1c(-c2ccc(O)cc2)coc2cc(OCCCCN3CCCCC3)ccc12	6.88

For each of the items listed, what is its inhibition?
1. O=c1c(-c2ccc(OCCN3CCCCC3)cc2)coc2cc(OCCN3CCCCC3)ccc12
2. COc1ccc(-c2coc3cc(OCCN)ccc3c2=O)cc1.Cl
3. CCN(C)CCCCOc1ccc2c(=O)c(-c3ccc(OCCN4CCCCC4)cc3)coc2c1
4. COc1ccc(-c2coc3cc(OCCNc4c5c(nc6ccccc46)CCCC5)ccc3c2=O)cc1
5. S=C(NC1CCCCC1)N1CCC(c2cnc[nH]2)CC1 [THIOPERAMIDE]

RESULT:
1: 71.5; 2: -6.69; 3: 75.2; 4: 60.5; 5: 71.1

###

- measured_on: Acetylcholinesterase (Mus musculus)
- protocol_description: Inhibition of mouse brain AChE using acetylthiocholine iodide as substrate measured after 30 mins by Ellman's method
- experimental_parameters: read-out: IC50
pIC50: −log10 of the molar value.
Label met when pIC50 >= 6; otherwise not met.

# example entries with known answers
COc1ccc(-c2coc3cc(OCCOCCN4CCCCC4)ccc3c2=O)cc1	not met
CCN(C)CCCOc1ccc2c(=O)c(-c3ccc(OC)cc3)coc2c1	not met
COc1ccc(-c2coc3cc(OCCNC4CCCCC4)ccc3c2=O)cc1	not met

QUERY: Kindly determine if pIC50 recorded for CCN(C)CCCCOc1ccc2c(=O)c(-c3ccc(OC)cc3)coc2c1 is above or exactly 6.
RESULT: not met

QUERY: Kindly determine if pIC50 recorded for O=c1c(-c2ccc(OCCN3CCCCC3)cc2)coc2cc(OCCN3CCCCC3)ccc12 is above or exactly 6.
RESULT: met

QUERY: Kindly determine if pIC50 recorded for COc1ccc(-c2coc3cc(OCCN4C(=O)c5ccccc5C4=O)ccc3c2=O)cc1 is above or exactly 6.
RESULT: not met
